// provenance: paper PMC8809517

target-desc: T1, GFP-9S library array, motif 4 ND N98F;D124Q (synthetic construct, N98F;D124Q)
T1 chain: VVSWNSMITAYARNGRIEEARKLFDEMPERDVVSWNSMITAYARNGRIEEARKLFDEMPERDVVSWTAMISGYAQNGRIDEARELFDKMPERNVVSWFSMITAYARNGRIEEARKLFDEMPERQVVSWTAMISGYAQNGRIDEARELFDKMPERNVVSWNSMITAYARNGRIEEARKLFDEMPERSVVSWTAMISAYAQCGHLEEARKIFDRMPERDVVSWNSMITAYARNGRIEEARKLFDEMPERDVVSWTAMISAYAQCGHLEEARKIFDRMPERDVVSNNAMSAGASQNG
measurement-protocol: high-throughput RNA pulldown from lysate on Ni-NTA beads; HRP: 50 mM Tris pH 8, 150 mM NaCl, 1 mM beta-mercaptoethanol, 50 ug/ml BSA, 3 ug/ml yeast RNA, 0.5% heparin; ITC and FP: Tris pH 8, 200 mM KCl, 5% glycerol; MST: 50 mM Tris pH 8, 200 mM NaCl, 1 mM DTT, BSA, heparin, 0.05% Tween 20
assay-setup: tags: N-terminal His-eGFP; label: 5' Cy5
# Kd listing for each entry below
Number in nM, nothing else.

AUUACACGUGA (ssRNA) [Cy5-rpoA] : 158

Let us move to another entry and its Kd.
Return reported Kd; argument: AUUAGACGUGA (ssRNA) [Cy5-rpoA-G]
143
